Biological target: T1, deglycosylated V domain of human CD33 (human, UniProt P20138 18-139, limits assumed, N-glycans removed by PNGase)
T1 construct: V domain deglycosylated by PNGase before testing; also called deglycosylated V CD33
Assay: SPR, Fab captured, 37C;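 further: biacore 8K surface plasmon resonance with Fabs held on an amine-coupled anti-Fab antibody surface, soluble monomeric CD33 domain injected as analyte, double-referenced 1:1 binding fit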
Please respond with reported pKd for every item in the list.
Answers are plain numbers, as −log10 of the molar value.

>>> measurement("ADI-11819 Fab (Fab, V domains shown, Fab fragment; also called Ab8) VH: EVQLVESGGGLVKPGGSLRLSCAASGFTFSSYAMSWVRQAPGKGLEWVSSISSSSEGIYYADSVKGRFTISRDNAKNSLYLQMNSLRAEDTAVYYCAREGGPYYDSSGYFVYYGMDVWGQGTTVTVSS VL: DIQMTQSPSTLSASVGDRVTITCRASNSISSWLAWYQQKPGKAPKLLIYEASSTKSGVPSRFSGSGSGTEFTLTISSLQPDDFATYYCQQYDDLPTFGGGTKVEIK")
9.96
>>> measurement("ADI-11835 Fab (Fab, V domains shown, Fab fragment; also called Ab10; I35) VH: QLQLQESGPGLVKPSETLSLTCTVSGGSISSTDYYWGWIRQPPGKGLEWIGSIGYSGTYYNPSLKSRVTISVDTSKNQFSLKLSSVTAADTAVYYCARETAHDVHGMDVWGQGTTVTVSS VL: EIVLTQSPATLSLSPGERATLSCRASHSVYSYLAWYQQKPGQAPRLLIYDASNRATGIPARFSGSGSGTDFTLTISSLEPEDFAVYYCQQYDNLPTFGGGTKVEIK")
9.01

Problem: Need pKd, item ADI-10163 Fab (Fab, V domains shown, Fab fragment; also called Ab17) VH: QVQLQESGPGLVKPSQTLSLTCTVSGGSISSGGYYWSWIRQHPGKGLEWIGSIYYSGSTYYNPSLKSRVTISVDTSKNQFSLKLSSVTAADTAVYYCARDRLDYSYNYGMDVWGQGTTVTVSS VL: DIQMTQSPSSLSASVGDRVTITCRASQSISSYLNWYQQKPGKAPKLLIYGASSLQSGVPSRFSGSGSGTDFTLTISSLQPEDFATYYCQQVYSAPFTFGGGTKVEIK
Solution: 6.82
